# method summary: in vivo
# Format: in vivo, rat
# measurement conditions: Sprague Dawley, rat, liver, oral; male rats, one dose per day on D0, D+1, D+2; D+3 (day following the last dose); read-out: hepatic persistence (concentration in the liver)
parameter: concentration at 3 day

What measured concentration at 3 day goes with O=c1oc2ccccc2c(O)c1C1CC(c2ccc(-c3ccccc3)cc2)Cc2ccccc21 (stereo not drawn) [trans-difenacoum] ?
~2000 ng/g

Cited source: patent US9706770B2
